Would you mind telling me the reported Bliss excess of each entry?
- Test system: HuO-3N1 (Osteosarcoma)
- Experimental Details: Bliss excess, mean over the matrix (fraction); higher = more synergy;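 note: after 72 h of two-drug dosing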
Provide a numeric answer; units are not to be included.

**Query** For the molecule CC(=O)c1c(C)c2cnc(Nc3ccc(N4CCNCC4)cn3)nc2n(C2CCCC2)c1=O [Palbociclib] + Cc1c2c(nn1C)CSCc1cc(n(C)n1)CSc1cc(c3ccccc3c1)OCCCc1c(C(=O)O)n(C)c3c-2c(Cl)ccc13 [AZD5991] (first compound max 10 µM, 7x7, partner max 1 µM) , give its reported Bliss excess.
**Result** -0.0972

**Query** For the molecule Cc1cc2ncnn2cc1Nc1ncc2c(n1)n(C1CCOCC1)c(=O)n2C [AZD7648] + CCN(CCO)CCCOc1ccc2c(Nc3cc(CC(=O)Nc4cccc(F)c4)[nH]n3)ncnc2c1 [AZD2811] (first compound max 10 µM, 7x7, partner max 1 µM) , give its reported Bliss excess.
**Result** -0.0184

**Query** For the molecule CC1(C)CCC(CN2CCN(c3ccc(C(=O)NS(=O)(=O)c4ccc(NCC5CCOCC5)c([N+](=O)[O-])c4)c(Oc4cnc5[nH]ccc5c4)c3)CC2)=C(c2ccc(Cl)cc2)C1 [Venetoclax] + CN(C)CCCOc1ccc(-c2ccc3ncc4c(c3c2)n(C2CCOCC2)c(=O)n4C)cn1 [AZD0156] (first compound max 1 µM, 7x7, partner max 1 µM) , give its reported Bliss excess.
**Result** -0.0235

====

- System: AN3-CA (Endometrial Carcinoma)
- Experimental Details: Bliss excess, mean over the matrix (fraction); higher = more synergy
Readout Kind: Bliss excess
Provide a numeric answer; units are not to be included.

**Query** Send back AN3-CA (Endometrial Carcinoma) Bliss excess of NC1(C(=O)N[C@@H](CCO)c2ccc(Cl)cc2)CCN(c2ncnc3[nH]ccc23)CC1 [Capivasertib] + Cn1cnc2c(F)c(Nc3ccc(Br)cc3Cl)c(C(=O)NOCCO)cc21 [Selumetinib] (first compound max 10 µM, 7x7, partner max 10 µM) only.
**Result** -0.0016

**Query** Send back AN3-CA (Endometrial Carcinoma) Bliss excess of CC1(C)CCC(CN2CCN(c3ccc(C(=O)NS(=O)(=O)c4ccc(NCC5CCOCC5)c([N+](=O)[O-])c4)c(Oc4cnc5[nH]ccc5c4)c3)CC2)=C(c2ccc(Cl)cc2)C1 [Venetoclax] + C[C@@H]1COCCN1C2=NC(=NC(=C2)C3(CC3)[S@](=N)(=O)C)C4=C5C=CNC5=NC=C4 [AZD6738] (first compound max 1 µM, 7x7, partner max 10 µM) only.
**Result** -0.0068

**Query** Send back AN3-CA (Endometrial Carcinoma) Bliss excess of COc1nnc2ccc(N3CCC(c4ccc(OCCN5CCN(C)C(=O)[C@H]5C)cc4)CC3)nn12 [AZD5153] + CC1(C)CCC(CN2CCN(c3ccc(C(=O)NS(=O)(=O)c4ccc(NCC5CCOCC5)c([N+](=O)[O-])c4)c(Oc4cnc5[nH]ccc5c4)c3)CC2)=C(c2ccc(Cl)cc2)C1 [Venetoclax] (first compound max 1 µM, 7x7, partner max 1 µM) only.
**Result** -0.0347

**Query** Send back AN3-CA (Endometrial Carcinoma) Bliss excess of Cn1cnc2c(F)c(Nc3ccc(Br)cc3Cl)c(C(=O)NOCCO)cc21 [Selumetinib] + CC(C)n1c(=O)n(C)c2cnc3cc(F)c(-c4ccc(OCCCN5CCCCC5)nc4)cc3c21 [AZD1390] (first compound max 10 µM, 7x7, partner max 0.3 µM) only.
**Result** -0.0669

**Query** Send back AN3-CA (Endometrial Carcinoma) Bliss excess of CCN(CCO)CCCOc1ccc2c(Nc3cc(CC(=O)Nc4cccc(F)c4)[nH]n3)ncnc2c1 [AZD2811] + C=CCn1c(=O)c2cnc(Nc3ccc(N4CCN(C)CC4)cc3)nc2n1-c1cccc(C(C)(C)O)n1 [AZD1775] (first compound max 1 µM, partner max 1 µM) only.
**Result** 0.0276

**Query** Send back AN3-CA (Endometrial Carcinoma) Bliss excess of Cc1c2c(nn1C)CSCc1cc(n(C)n1)CSc1cc(c3ccccc3c1)OCCCc1c(C(=O)O)n(C)c3c-2c(Cl)ccc13 [AZD5991] + CN(C)CCCOc1ccc(-c2ccc3ncc4c(c3c2)n(C2CCOCC2)c(=O)n4C)cn1 [AZD0156] (first compound max 1 µM, 7x7, partner max 1 µM) only.
**Result** -0.0338

**Query** Send back AN3-CA (Endometrial Carcinoma) Bliss excess of Cc1c2c(nn1C)CSCc1cc(n(C)n1)CSc1cc(c3ccccc3c1)OCCCc1c(C(=O)O)n(C)c3c-2c(Cl)ccc13 [AZD5991] + Cn1cnc2c(F)c(Nc3ccc(Br)cc3Cl)c(C(=O)NOCCO)cc21 [Selumetinib] (first compound max 1 µM, 7x7, partner max 3 µM) only.
**Result** 0.0158

Values compiled from the supplement of paper PMC11061612.
